Target Or Test System: T1, purified interference factor(s), Donor C
T1 construct: also called interference in serum from Donor C
Assay: SPR, interference factor immobilized
Assay Readout: % of binding of reference (=100%)

Binder: SEQ ID NO: 72 (VHH, Ex. 8) VHH: EVQLVESGGGLVQPGGSLRLSCAASRSIGRLDRMGWYRHRPGEPRELVATITGGSSINYGDSVKGRFTISIDNSKNTVYLQMNSLRPEDTAVYYCNFNKYVTSRDTWGQGTLVTVGG
Assay Readout: % of binding of reference (=100%)
Quantity Unit: %
Endpoint Result: 56

Binder: SEQ ID NO: 88 (VHH, Ex. 8; L11S, T110Q) VHH: EVQLVESGGGSVQPGGSLRLSCAASRSIGRLDRMGWYRHRPGEPRELVATITGGSSINYGDSVKGRFTISIDNSKNTVYLQMNSLRPEDTAVYYCNFNKYVTSRDTWGQGTLVQVSS
Assay Readout: % of binding of reference (=100%)
Quantity Unit: %
Endpoint Result: 11

Source of measurements: patent US20200216532A1
